experimental.details: Solution stability test (residual ratio and generation of active form in buffers of pH 2.0 to 9.0)
Format: physicochemical
test.parameters: pH7.4 buffer, 25° C., 25 umol/L, 12 hr
Where a name gives a salt, the structure may show the parent alone.
Lab note: anything with Residual ratio at or over 0.2% counts as MET; the rest go in NOT MET.

molecule | class
C[C@H]1COc2c1c(OC(=O)NCCCNCC(=O)O)c(OC(=O)NCCCNCC(=O)O)c1c3c(ccc21)C(C)(C)CCC3 [Example 13, dihydrochloride] | MET
CC(=O)c1cc2c(OC(=O)NCCNCC(=O)O)c3ccsc3c(OC(=O)NCCNCC(=O)O)c2o1 [Example 1, dihydrochloride] | NOT MET
CC(=O)c1cc2c(O)c3c(O)cccc3c(OC(=O)NCCCN)c2o1 [Reference Example 9, hydrochloride] | MET
C[C@H]1COc2c1c(OC(=O)NCCNCC(=O)O)c(OC(=O)NCCNCC(=O)O)c1c3c(ccc21)C(C)(C)CCC3 [Example 12, dihydrochloride] | NOT MET

Shift focus to the following entry.
Query: Record NCCCNC(=O)Oc1c(OC(=O)NCCCN)c(-c2ccccc2)c2c(c1-c1ccccc1)OCO2 [Example 6] ; criterion: Residual ratio no lower than 0.2%. Met?
Reply: MET

----------
experimental.details: Solution stability test (residual ratio and generation of active form in buffers of pH 2.0 to 9.0)
Assay type: physicochemical
test.parameters: pH of 2.0, 25° C.
Counter-ions that a name gives are not always drawn.

compound | Stability in solution (in words)
C[C@H]1COc2c1c(OC(=O)NCCCNCC(=O)O)c(OC(=O)NCCCNCC(=O)O)c1c3c(ccc21)C(C)(C)CCC3 [Example 13, dihydrochloride] | stable
CN1CC[C@H](c2c(O)cc(OC(=O)N(C)CCN)c3c(=O)cc(-c4ccccc4Cl)oc23)[C@H](O)C1 [Example 9, ditrifluoroacetate] | stable
CNCCN(C)C(=O)Oc1cc(O)c([C@H]2CCN(C)C[C@H]2O)c2oc(-c3ccccc3Cl)cc(=O)c12 [Example 11, ditrifluoroacetate] | stable

Data origin, for the record: patent US20200207782A1
